The values you see were collected from the supplement of paper PMC7125110.

B1: glmS ribozyme (parent)
chain: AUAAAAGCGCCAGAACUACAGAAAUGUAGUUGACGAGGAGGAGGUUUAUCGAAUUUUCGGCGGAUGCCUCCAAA

variants of: B1; assay: self-cleavage kobs at 40 uM GlcN6P; higher = faster cleavage; RNA array; details: with glucosamine-6-phosphate
This sample holds only a part of the variants without activity.
PARAMETER: self-cleavage kobs at 40 uM GlcN6P

INPUT: Recall and state the measured self-cleavage kobs at 40 uM GlcN6P for G9A A14G .
OUTPUT: < 1e-05 s⁻¹

INPUT: Kindly indicate its recorded self-cleavage kobs at 40 uM GlcN6P. Item: C16A G38A
OUTPUT: < 1e-05 s⁻¹

INPUT: Supply measured self-cleavage kobs at 40 uM GlcN6P of U46G G51U in your reply.
OUTPUT: < 1e-05 s⁻¹

INPUT: Give the value of self-cleavage kobs at 40 uM GlcN6P reported for the following: C34G U45A
OUTPUT: < 1e-05 s⁻¹

INPUT: Give a short answer stating reported self-cleavage kobs at 40 uM GlcN6P for U30A U31C C50G U56G C61G .
OUTPUT: 3.8e-05 s⁻¹

INPUT: Read off the recorded self-cleavage kobs at 40 uM GlcN6P for C11U G29U C50U C71G
OUTPUT: 4.57e-05 s⁻¹

INPUT: Give self-cleavage kobs at 40 uM GlcN6P for G62A C71A
OUTPUT: < 1e-05 s⁻¹

INPUT: Please indicate self-cleavage kobs at 40 uM GlcN6P recorded for C16G G29C
OUTPUT: 0.000686 s⁻¹

INPUT: Give a short answer stating reported self-cleavage kobs at 40 uM GlcN6P for A53U A64G .
OUTPUT: 0.000491 s⁻¹

INPUT: Give a short answer stating reported self-cleavage kobs at 40 uM GlcN6P for C8A U49A .
OUTPUT: < 1e-05 s⁻¹

INPUT: Recall and state the measured self-cleavage kobs at 40 uM GlcN6P for G44C G60C .
OUTPUT: < 1e-05 s⁻¹

INPUT: Recall and state the measured self-cleavage kobs at 40 uM GlcN6P for G9A G13U C50G U57A .
OUTPUT: 0.000665 s⁻¹

INPUT: Identify the reported self-cleavage kobs at 40 uM GlcN6P for the following entry. A6U C10A G40A U46G
OUTPUT: < 1e-05 s⁻¹

INPUT: Specify self-cleavage kobs at 40 uM GlcN6P for U56C U57G and stop.
OUTPUT: < 1e-05 s⁻¹

INPUT: Hello, please tell me recorded self-cleavage kobs at 40 uM GlcN6P for this one: A6G G35U
OUTPUT: < 1e-05 s⁻¹

INPUT: Using the record for C10U G63U C70U , state its measured self-cleavage kobs at 40 uM GlcN6P.
OUTPUT: < 1e-05 s⁻¹

INPUT: State, in one line, measured self-cleavage kobs at 40 uM GlcN6P of G29A A39G
OUTPUT: 0.000267 s⁻¹

INPUT: Note down self-cleavage kobs at 40 uM GlcN6P recorded for C11A U49G C67G
OUTPUT: 4.47e-05 s⁻¹

INPUT: Return reported self-cleavage kobs at 40 uM GlcN6P. Input variant: G13C G32C U47C
OUTPUT: < 1e-05 s⁻¹

INPUT: Item G37A G51C : provide self-cleavage kobs at 40 uM GlcN6P
OUTPUT: < 1e-05 s⁻¹

INPUT: Identify measured self-cleavage kobs at 40 uM GlcN6P corresponding to C11G G66U
OUTPUT: < 1e-05 s⁻¹

INPUT: Using the record for G9C G51C , state its measured self-cleavage kobs at 40 uM GlcN6P.
OUTPUT: < 1e-05 s⁻¹

INPUT: Give the reported self-cleavage kobs at 40 uM GlcN6P for this variant. G62C C70U
OUTPUT: < 1e-05 s⁻¹

INPUT: Give reported self-cleavage kobs at 40 uM GlcN6P value for G7U G32U U49A
OUTPUT: < 1e-05 s⁻¹

INPUT: Read off the recorded self-cleavage kobs at 40 uM GlcN6P for G13A C16G U65G
OUTPUT: < 1e-05 s⁻¹

INPUT: Output measured self-cleavage kobs at 40 uM GlcN6P for this item: A6U A33C
OUTPUT: < 1e-05 s⁻¹

INPUT: Look up and report measured self-cleavage kobs at 40 uM GlcN6P for this entry: A6C G62C
OUTPUT: < 1e-05 s⁻¹

INPUT: Return self-cleavage kobs at 40 uM GlcN6P for the following variant: U31A A33G A39U G43A A48U
OUTPUT: < 1e-05 s⁻¹

INPUT: Specify reported self-cleavage kobs at 40 uM GlcN6P for the variant shown: A15G U47G G60A C61U C68A
OUTPUT: 6.07e-05 s⁻¹

INPUT: Determine from records and report self-cleavage kobs at 40 uM GlcN6P for A33U C34U G60C C68U
OUTPUT: < 1e-05 s⁻¹

INPUT: Tell me measured self-cleavage kobs at 40 uM GlcN6P for G7A G13U A14C A15U G35A U55C A64G C71A please.
OUTPUT: < 1e-05 s⁻¹

INPUT: # return recorded self-cleavage kobs at 40 uM GlcN6P for entry G41U G60U A64U
OUTPUT: < 1e-05 s⁻¹

INPUT: Return value of self-cleavage kobs at 40 uM GlcN6P for input G7U A12G , no commentary.
OUTPUT: < 1e-05 s⁻¹

INPUT: Note self-cleavage kobs at 40 uM GlcN6P for the variant shown: A15U G62U
OUTPUT: < 1e-05 s⁻¹

INPUT: State its self-cleavage kobs at 40 uM GlcN6P for this variant: C8U C61U
OUTPUT: < 1e-05 s⁻¹

INPUT: Provide one value: measured self-cleavage kobs at 40 uM GlcN6P of G7U A42G
OUTPUT: < 1e-05 s⁻¹

INPUT: Give self-cleavage kobs at 40 uM GlcN6P for G35C C50A
OUTPUT: < 1e-05 s⁻¹

INPUT: Find the measured self-cleavage kobs at 40 uM GlcN6P of G60U G62U and report it.
OUTPUT: < 1e-05 s⁻¹

INPUT: Let me know recorded self-cleavage kobs at 40 uM GlcN6P for C10U A15U G43A A52G , thanks.
OUTPUT: < 1e-05 s⁻¹

INPUT: Please give measured self-cleavage kobs at 40 uM GlcN6P of the following entry: G40A G43U
OUTPUT: < 1e-05 s⁻¹

INPUT: Using the record for G29A U31C G35U G66A , state its measured self-cleavage kobs at 40 uM GlcN6P.
OUTPUT: < 1e-05 s⁻¹

INPUT: Tell me self-cleavage kobs at 40 uM GlcN6P reported for C11A G44U G59U C67A
OUTPUT: 0.000322 s⁻¹

INPUT: Query self-cleavage kobs at 40 uM GlcN6P for G29C U45A C68G
OUTPUT: < 1e-05 s⁻¹

INPUT: Assign self-cleavage kobs at 40 uM GlcN6P to the following record: A36C A48G
OUTPUT: < 1e-05 s⁻¹

INPUT: Fill in self-cleavage kobs at 40 uM GlcN6P for record U46G U54G
OUTPUT: 0.000155 s⁻¹

INPUT: For the variant G59C U65A , report self-cleavage kobs at 40 uM GlcN6P.
OUTPUT: < 1e-05 s⁻¹

INPUT: Answer with reported self-cleavage kobs at 40 uM GlcN6P of C11A A12U A52U
OUTPUT: < 1e-05 s⁻¹

INPUT: // fetch self-cleavage kobs at 40 uM GlcN6P given entry U31G U56A
OUTPUT: 6.8e-05 s⁻¹

INPUT: Return value of self-cleavage kobs at 40 uM GlcN6P for input C11G G59C , no commentary.
OUTPUT: 5.21e-05 s⁻¹

INPUT: Identify measured self-cleavage kobs at 40 uM GlcN6P associated with G13U G32A C50U
OUTPUT: < 1e-05 s⁻¹

INPUT: Return value of self-cleavage kobs at 40 uM GlcN6P for input C16G A39G G51U U55A , no commentary.
OUTPUT: < 1e-05 s⁻¹

INPUT: In one line, give reported self-cleavage kobs at 40 uM GlcN6P of the entry U31G C34U A42G .
OUTPUT: < 1e-05 s⁻¹

INPUT: Determine its reported self-cleavage kobs at 40 uM GlcN6P: A33U C67U C70G
OUTPUT: < 1e-05 s⁻¹

INPUT: Write down self-cleavage kobs at 40 uM GlcN6P measured for item G9C G29U U69A
OUTPUT: < 1e-05 s⁻¹

INPUT: // fetch self-cleavage kobs at 40 uM GlcN6P given entry G7U A36C G59U
OUTPUT: < 1e-05 s⁻¹

INPUT: Consider the variant G44A G60A and give its recorded self-cleavage kobs at 40 uM GlcN6P.
OUTPUT: < 1e-05 s⁻¹

INPUT: Find the measured self-cleavage kobs at 40 uM GlcN6P of G7A G32A U45A A52G U65G and report it.
OUTPUT: < 1e-05 s⁻¹

INPUT: // Input: A52C C68G . Output its self-cleavage kobs at 40 uM GlcN6P only.
OUTPUT: 4.36e-05 s⁻¹

INPUT: Query self-cleavage kobs at 40 uM GlcN6P for A14G U45A U49G
OUTPUT: 8.34e-05 s⁻¹

INPUT: Tell me its self-cleavage kobs at 40 uM GlcN6P given C50A G63C as the entry.
OUTPUT: < 1e-05 s⁻¹

INPUT: Give self-cleavage kobs at 40 uM GlcN6P for the following variant: C16U G63U G66A
OUTPUT: < 1e-05 s⁻¹

INPUT: # return recorded self-cleavage kobs at 40 uM GlcN6P for entry G60U G63A C67U
OUTPUT: < 1e-05 s⁻¹

INPUT: Answer with the recorded self-cleavage kobs at 40 uM GlcN6P for the variant listed here: U31G U45A
OUTPUT: 0.000531 s⁻¹

INPUT: Determine from records and report self-cleavage kobs at 40 uM GlcN6P for U46C U65A
OUTPUT: 7.93e-05 s⁻¹

INPUT: # return recorded self-cleavage kobs at 40 uM GlcN6P for entry A39U U47G
OUTPUT: 0.000119 s⁻¹

INPUT: Give recorded self-cleavage kobs at 40 uM GlcN6P. G13C U46G
OUTPUT: < 1e-05 s⁻¹

INPUT: Give the reported value of self-cleavage kobs at 40 uM GlcN6P for this record: A14C U31G
OUTPUT: 0.000384 s⁻¹

INPUT: Give the value of self-cleavage kobs at 40 uM GlcN6P reported for the following: U57C C67G
OUTPUT: < 1e-05 s⁻¹
